# target-under-test: Lanosterol synthase (Homo sapiens) (UniProt P48449)
# Sequence (whole entry): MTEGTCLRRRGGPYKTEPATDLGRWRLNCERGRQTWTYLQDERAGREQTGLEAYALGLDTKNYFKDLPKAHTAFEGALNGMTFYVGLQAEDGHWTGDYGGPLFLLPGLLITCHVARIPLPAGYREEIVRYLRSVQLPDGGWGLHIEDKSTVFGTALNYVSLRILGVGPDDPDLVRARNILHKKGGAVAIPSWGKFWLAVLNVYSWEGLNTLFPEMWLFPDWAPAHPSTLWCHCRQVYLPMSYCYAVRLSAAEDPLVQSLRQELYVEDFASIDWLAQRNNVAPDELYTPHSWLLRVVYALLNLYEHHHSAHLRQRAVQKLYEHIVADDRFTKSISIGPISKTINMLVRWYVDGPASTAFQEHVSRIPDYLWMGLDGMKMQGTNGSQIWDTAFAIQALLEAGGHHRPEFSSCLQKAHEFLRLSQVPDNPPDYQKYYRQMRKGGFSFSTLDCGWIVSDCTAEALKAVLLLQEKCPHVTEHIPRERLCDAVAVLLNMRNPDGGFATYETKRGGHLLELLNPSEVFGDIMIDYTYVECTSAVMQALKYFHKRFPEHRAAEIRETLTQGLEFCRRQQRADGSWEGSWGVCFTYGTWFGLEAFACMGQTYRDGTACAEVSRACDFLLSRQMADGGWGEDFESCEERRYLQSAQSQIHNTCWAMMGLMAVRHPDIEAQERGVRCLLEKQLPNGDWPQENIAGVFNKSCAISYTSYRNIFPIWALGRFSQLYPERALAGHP
# procedure-summary: Inhibition of human OSC expressed in Saccharomyces cerevisiae at 20 uM by gas chromatography relative to LDAO2
observed-property: inhibition (%)

Consider the following illustrative entries.
[
  {
    "molecule": "CCCCCCCCCCCC[N+](C)(C)[O-]",
    "target-under-test": "Lanosterol synthase (Homo sapiens) (UniProt P48449)",
    "result-value": 100
  },
  {
    "molecule": "CN(C)Cc1ccc(CNCc2cnn(-c3ccccc3)n2)cc1",
    "target-under-test": "Lanosterol synthase (Homo sapiens) (UniProt P48449)",
    "result-value": 77
  }
]

[P] CN(C)Cc1ccc(CNC(=O)c2ccc(C(F)(F)F)cc2)cc1
[Q] Cc1cc(CNCc2ccc(CN(C)C)cc2)c(C)n1CC(C)C
Which of the two items, P and Q , has the greater recorded inhibition? # reply format: chosen label
P
(P: 101%, Q: 27%)
